assayNotes: recombinant barcode read abundance after kanamycin selection (control-corrected) (log10(CPM+1)); higher = more efficient recombination; sequences stand for … in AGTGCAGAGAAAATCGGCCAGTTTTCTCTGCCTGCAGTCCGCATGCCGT…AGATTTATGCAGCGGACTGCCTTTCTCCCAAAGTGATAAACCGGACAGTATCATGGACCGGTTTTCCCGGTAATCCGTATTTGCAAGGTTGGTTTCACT; site = the 11-nt target;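 also: IS621 recombinase and bridge RNA in Escherichia coli cells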
measuredProperty: recombinant barcode read abundance (log10)
Quick one: just the number, no unit, thanks!

GCAATTACTTGGGTTCTAACCTGTTGCTT (site GCAATTACTAA)
0.0238
CTACACACTTGGGTTCTAACCTGTTGCTA (site CTACACACTTA)
1.91

We now examine a further sequence.
Q: Give its recombinant barcode read abundance (log10) value. Item: TTACCCACTTGGGTTCTAACCTGTTGCCT (site TTACCCACTAG)
Result: 3.27
